System: CASKI
Assay: Primary qHTS to identify gynecologic anti-cancer compounds using libraries of approved drugs and bioactive compounds (AID 1345084); also: % is scaled to controls: 0 for no effect and ±100 for the full control effect; nearly all actives have a fitted effect of over 55% in size
Settings: Gynecologic cancer cell panel viability, ATPlite luminescence, 48 h; series mostly up to 57.5 µM
Records with an inconclusive call do not appear. Active and inactive are the calls of the source. Calls follow the shape of the dose curve; as a rule, active = well fitted cell-killing curve with a large enough effect; inconclusive = small, poorly fitted or top-dose-only effect, or effect the other way; inactive = flat fitted curve, though single readings scatter.
Endpoint name: activity change, negative = cytotoxicity

Use the examples below as a reference point.
Observed activity change, negative = cytotoxicity on CASKI, entry O=C1NC(=O)/C(=C/c2cccc(C(F)(F)F)c2)S1 , equals inactive

The reported CASKI activity change, negative = cytotoxicity of C=C1C(O)CC2C(C(=O)O)=COC(OC3OC(CO)C(O)C(O)C3OC(=O)/C=C\c3ccc(O)cc3)C12 (stereo not drawn) is inactive

Reading of activity change, negative = cytotoxicity for C=C1CCC2C(C)(C(=O)OC)CCCC2(C)C1CCC1=CCOC1=O (stereo not drawn) with CASKI: inactive

Sample COC(=O)C1=CO[C@@H](O[C@@H]2O[C@H](CO)[C@@H](O)[C@H](O)[C@H]2O)[C@@H]2C(C)CC(=O)[C@]12O (stereo partly drawn) , system: CASKI. Its activity change, negative = cytotoxicity is inactive

Others:
Field activity change, negative = cytotoxicity (system: CASKI) for entry Cc1occc(=O)c1O[C@@H]1O[C@H](CO[C@@H]2OC[C@](O)(CO)[C@H]2O)[C@@H](O)[C@H](O)[C@H]1O = inactive

Response field activity change, negative = cytotoxicity (CASKI) for item Cc1ccc(-c2c(-c3nn(C)c4ncnc(N5CCC(N6CCCCC6)C5)c34)cnn2C)cc1 (stereo not drawn) : inactive

I looked up O=C(OC[C@H]1O[C@@H](Oc2ccccc2COC(=O)C2(O)C=CCCC2O)[C@H](O)[C@@H](O)[C@@H]1O)c1ccccc1 (stereo partly drawn) and its activity change, negative = cytotoxicity for CASKI was inactive

Item CCNC(=O)OC1CCN(c2nncc3cc(OC)c(OC)cc23)CC1 ; assay system CASKI; activity change, negative = cytotoxicity reported as inactive

----------
Tested on: OV90
Test: Primary qHTS to identify gynecologic anti-cancer compounds using libraries of approved drugs and bioactive compounds (AID 1345084); also: % is scaled to controls: 0 for no effect and ±100 for the full control effect; nearly all actives have a fitted effect of over 55% in size
Conditions: Gynecologic cancer cell panel viability, ATPlite luminescence, 48 h; series mostly up to 57.5 µM
Records with an inconclusive call do not appear. Activity calls are given as the source filed them. The call rests on the fitted dose curve; in most records, active means well fitted cell-killing curve with a large enough effect; inconclusive means small, poorly fitted or top-dose-only effect, or effect the other way; inactive means flat fitted curve, though single readings scatter.
Endpoint name: activity change, negative = cytotoxicity

Please fill in: activity change, negative = cytotoxicity reported for CC1CC(=O)[C@]2(O)C(C(=O)OCCc3ccc(O)c(O)c3)=CO[C@@H](O[C@@H]3O[C@H](CO)[C@@H](O)[C@H](O)[C@H]3O)[C@H]12 (some centres undefined) = inactive

// activity change, negative = cytotoxicity value for C/C=C/C=C/C(=O)OC1CC/C=C/C(O)C(O)C(CCC)OC1=O (centres undefined) : inactive

get_value(item= CCOc1ccc(-c2cc(NC(=O)c3c(F)cccc3F)c(C(=O)O)s2)cc1 , readout=activity change, negative = cytotoxicity) returns inactive

Please fill in: activity change, negative = cytotoxicity reported for C=C1CCC2(OC1)OC1CC3C4CC=C5CC(O)CC(O[C@@H]6OC[C@H](OC(=O)C(O)C(C)CC)[C@H](O)[C@H]6O[C@@H]6O[C@@H](C)[C@H](O)[C@@H](O)[C@H]6O)C5(C)C4CCC3(C)C1C2C (some centres undefined) = -4.79% [at 11.6 µM] (inactive)
